Tested on: SF-539
Test: NCI tumour cell line growth inhibition, 48 h
Calls of active or inactive are those of the source. Cut-off read from the data, not from the text of the source: active = GI50 up to about 1.1 µM and inactive = higher. Where a SMILES comes first, the peptide text is derived from it. The star is where a group is joined. Boc = CC(C)(C)OC(=O)*
Give GI50 for every item shown.

Q: Which GI50 is reported with SF-539 for this entry: C/C(=N\NC(=S)N1CCCCCCCCCCCC1)c1ccccn1 ?
Result: 0.199 µM (active)

Q: Which GI50 is reported with SF-539 for this entry: CC1=CC(=O)C(C(O)(C(F)(F)F)C(F)(F)F)C(C)(C)C1 (stereo unspecified) ?
Result: > 10 µM (inactive)

Q: Which GI50 is reported with SF-539 for this entry: CN(C)CCS/C(=N\c1ccccc1)N1C=COC=C1 ?
Result: 29.2 µM (inactive)

Q: Which GI50 is reported with SF-539 for this entry: COc1ccc(/C=C2\OC(=O)C(Cl)=C2c2ccc(OC)c(Cl)c2)cc1 ?
Result: 15.2 µM (inactive)

Q: Which GI50 is reported with SF-539 for this entry: CCOC(=O)C1(F)S(=O)(=O)OCCOS1(=O)=O ?
Result: > 100 µM (inactive)

Q: Which GI50 is reported with SF-539 for this entry: Cc1cc(=O)[nH]c2cc(NC(=O)C(C)NC(=O)C(C)NC(=O)C(C)NC(=O)OC(C)(C)C)ccc12 (stereo unspecified) ?
Result: > 15 µM (inactive)

Q: Which GI50 is reported with SF-539 for this entry: CNC(=O)OCc1c(CO)nc(SC)n1C ?
Result: > 100 µM (inactive)

Q: Which GI50 is reported with SF-539 for this entry: O=C1C(Cl)=C(NCCc2ccc(O)cc2)C(=O)c2c(O)ccc(O)c21 ?
Result: 6.58 µM (inactive)

Q: Which GI50 is reported with SF-539 for this entry: CCO/C=N\C1=C(C#N)SC2=N/C(=C\c3ccc(OC)cc3)C(=O)N21 ?
Result: > 100 µM (inactive)

Q: Which GI50 is reported with SF-539 for this entry: COc1ccc(-c2cc(-c3ccccc3)nc(N)c2-c2ccc3ccccc3c2)cc1 ?
Result: 2.1 µM (inactive)

Q: Which GI50 is reported with SF-539 for this entry: CNC(=S)NC(=S)N(C)C ?
Result: > 100 µM (inactive)

Q: Which GI50 is reported with SF-539 for this entry: CCC1NC(=O)C(NC(=O)c2ncccc2O)C(C)OC(=O)C(c2ccccc2)NC(=O)C2CC(=O)CCN2C(=O)C(Cc2ccccc2)N(C)C(=O)C2CCCN2C1=O (stereo unspecified) ?
Result: > 100 µM (inactive)

Q: Which GI50 is reported with SF-539 for this entry: CC(C)CCC[C@@H](C)C1CCC2[C@@H]3CCC4CC(CCC=C(c5cc(Cl)c(OC(=O)c6ccccc6)c(C(=O)O)c5)c5cc(Cl)c(OC(=O)c6ccccc6)c(C(=O)O)c5)CC[C@]4(C)C3CC[C@@]21C (stereo partly specified) ?
Result: > 100 µM (inactive)

Q: Which GI50 is reported with SF-539 for this entry: COc1cc2c3cc1Oc1cc(ccc1O)C[C@@H]1c4c(cc(OC)c(O)c4Oc4ccc(cc4)C[C@@H]3N(C)CC2)CC[N+]1(C)C ?
Result: 15.1 µM (inactive)

Q: Which GI50 is reported with SF-539 for this entry: Cc1cccc(C2=NC(C)(C)C(C)(C)N=C2c2cccc(C)n2)n1 ?
Result: > 100 µM (inactive)

Q: Which GI50 is reported with SF-539 for this entry: CC1(C)OC2OC(/C=C/[N+](=O)[O-])C3OC(C)(C)OC3C2O1 (stereo unspecified) ?
Result: 13.6 µM (inactive)

Q: Which GI50 is reported with SF-539 for this entry: C#CCN1CCN(C(=S)N/N=C(\C)c2ccccn2)CC1 ?
Result: 1.49 µM (inactive)

Q: Which GI50 is reported with SF-539 for this entry: CC[n+]1[b-](C(C)(C)C)n(/N=C/C(C)(C)C)[b-](C(C)(C)C)[n+]1CC ?
Result: > 100 µM (inactive)

Q: Which GI50 is reported with SF-539 for this entry: COC(=O)[C@]1(C)CCC[C@@]2(C)C1CC[C@@]13C=C(C(C)C)[C@@H](CC1=O)CC23 (stereo partly specified) ?
Result: 20.9 µM (inactive)

Q: Which GI50 is reported with SF-539 for this entry: COC(=O)C1=C(C(=O)OC)C2(OC(C)=O)c3ccccc3-c3ccccc3C12 (stereo unspecified) ?
Result: 17.2 µM (inactive)

Q: Which GI50 is reported with SF-539 for this entry: O=c1cc(-c2ccccc2)oc2c1ccc1nc3ccccc3c(O)c12 ?
Result: 33 µM (inactive)

Q: Which GI50 is reported with SF-539 for this entry: COC(=O)C(Cc1c(C2Nc3ccccc3C2CC(NC(C)=O)C(=O)OC)[nH]c2ccccc12)NC(C)=O (stereo unspecified) ?
Result: > 100 µM (inactive)

Q: Which GI50 is reported with SF-539 for this entry: O=C(O)c1cc2c(cc1CC(Cc1ccc3c(c1)CCCC3)C(=O)O)CCCC2 (stereo unspecified) ?
Result: 34.4 µM (inactive)

Q: Which GI50 is reported with SF-539 for this entry: O=[N+]([O-])c1ccc(/C(=N/c2ccccc2)SS/C(=N\c2ccccc2)c2ccc([N+](=O)[O-])o2)o1 ?
Result: 0.83 µM (active)

Q: Which GI50 is reported with SF-539 for this entry: O=[N+]([O-])c1ccc(-c2ccc([C@H]3CC(c4cc(F)c(Cl)cc4Cl)=NN3)o2)cc1 ?
Result: 5.38 µM (inactive)

Q: Which GI50 is reported with SF-539 for this entry: CC(=O)OCc1ccc2oc(=O)c(C(=O)Oc3cccc(Cl)c3)cc2c1 ?
Result: 46.2 µM (inactive)

Q: Which GI50 is reported with SF-539 for this entry: CN(CC#N)C1CCCC[C@H]1O (stereo partly specified) ?
Result: > 100 µM (inactive)

Q: Which GI50 is reported with SF-539 for this entry: CC(C)N(C(=O)c1cccc(C(=O)N(C(C)C)C(C)C)c1)C(C)C ?
Result: > 100 µM (inactive)

Q: Which GI50 is reported with SF-539 for this entry: COc1cccc(NC(=O)CC(=O)N2N=C(n3ccc4ccccc43)CC2c2ccccc2)c1 (stereo unspecified) ?
Result: > 100 µM (inactive)

Q: Which GI50 is reported with SF-539 for this entry: O=C(Cn1ccnc1[N+](=O)[O-])c1ccccc1 ?
Result: > 100 µM (inactive)

Q: Which GI50 is reported with SF-539 for this entry: N#Cc1cccc(/C=N/N/C(N)=N/O)c1 ?
Result: > 100 µM (inactive)

Q: Which GI50 is reported with SF-539 for this entry: Nc1ncc(Cc2nn3c(COc4ccc(Cl)cc4)nnc3s2)s1 ?
Result: > 100 µM (inactive)

Q: Which GI50 is reported with SF-539 for this entry: O=NC1c2cccc3cccc(c23)C1N=O (stereo unspecified) ?
Result: 12.8 µM (inactive)

Q: Which GI50 is reported with SF-539 for this entry: O=C1/C(=C/c2cccc3ccccc23)Cc2ccccc21 ?
Result: 27.2 µM (inactive)

Q: Which GI50 is reported with SF-539 for this entry: CCOC(OCC)c1ccc(/C=C/c2cc(OC)c(OC)c(OC)c2)cc1 ?
Result: 15.8 µM (inactive)

Q: Which GI50 is reported with SF-539 for this entry: N#CC(C(=N/NC(N)=S)/C(=N/NC(N)=S)C(C#N)c1ccc(Cl)cc1)c1ccc(Cl)cc1 (stereo unspecified) ?
Result: > 100 µM (inactive)

Q: Which GI50 is reported with SF-539 for this entry: O=C(O)CCNCC(=O)O ?
Result: > 100 µM (inactive)

Q: Which GI50 is reported with SF-539 for this entry: COC(=O)C(C)NC(=O)C(CCSC)NC(=O)C(Cc1ccccc1)NC(=O)OC(C)(C)C (stereo not drawn) (Boc-Phe-Met-Ala-OMe; configuration not given here) ?
Result: > 100 µM (inactive)

Q: Which GI50 is reported with SF-539 for this entry: CN1CC[N+](C)=C1c1ccccc1 ?
Result: > 100 µM (inactive)

Q: Which GI50 is reported with SF-539 for this entry: CC1Cc2c(N)nc(NN)nc2NC1=O (stereo unspecified) ?
Result: > 100 µM (inactive)

Q: Which GI50 is reported with SF-539 for this entry: COC(=O)C1Cc2ccc(O)c(O)c2CN1 (stereo unspecified) ?
Result: 18.4 µM (inactive)

* * *

Test system: M19-MEL
Test: NCI tumour cell line growth inhibition, 48 h
The source made the active and inactive calls. Rule as the data show it: active = GI50 up to about 1.1 µM and inactive = higher.
parameter: GI50

Q: Which GI50 is reported with M19-MEL for this entry: Brc1ccc2[nH]c3c(C4=NCCC4)nccc3c2c1 ?
Result: 26.9 µM (inactive)

Q: Which GI50 is reported with M19-MEL for this entry: CN(C)c1ccc(/C=c2\sc3nnc(Cc4ccccc4)n3c2=O)cc1 ?
Result: > 100 µM (inactive)

Q: Which GI50 is reported with M19-MEL for this entry: CC(C)N(C(=O)c1cccc(C(=O)N(C(C)C)C(C)C)c1)C(C)C ?
Result: > 100 µM (inactive)

Q: Which GI50 is reported with M19-MEL for this entry: COc1ccc2occ(CCC(=O)O)c2c1 ?
Result: > 100 µM (inactive)

Q: Which GI50 is reported with M19-MEL for this entry: Cn1cc2ccccc2c1-c1nc(F)nc(OCC(=O)[C@H]2CCC3[C@@H]4CCC5=CC(=O)CC[C@]5(C)C4[C@@H](O)C[C@@]32C)n1 (stereo not given in full) ?
Result: 4.34 µM (inactive)

Q: Which GI50 is reported with M19-MEL for this entry: OCC(O)C(OC1OC(CO)C(O)C(O)C1O)c1nn(-c2ccccc2)c2nc3cc(Cl)c(Cl)cc3cc12 (stereo not given) ?
Result: > 100 µM (inactive)

Q: Which GI50 is reported with M19-MEL for this entry: N=C(N)NS(=O)(=O)c1ccc(NCCc2c3ccccc3nc3ccccc23)cc1 ?
Result: > 100 µM (inactive)

Q: Which GI50 is reported with M19-MEL for this entry: Nc1nc2c(c(=O)[nH]1)NC(CO)CN2 (stereo not given) ?
Result: 63.2 µM (inactive)

Q: Which GI50 is reported with M19-MEL for this entry: O=C(O)C1=NN=C(C(=O)O)NN1 ?
Result: > 100 µM (inactive)

Q: Which GI50 is reported with M19-MEL for this entry: COc1cc2ccc(CC#N)cc2cc1OC ?
Result: > 100 µM (inactive)

Q: Which GI50 is reported with M19-MEL for this entry: CCC12CCCN(Cc3ccccc3)C1c1c(n(C)c3ccccc13)C(CO)C2 (stereo not given) ?
Result: 59 µM (inactive)

Q: Which GI50 is reported with M19-MEL for this entry: CCOC(=O)C1=C(C)C2C3C(=O)NC(=O)C3C1(C)C1C(=O)NC(=O)C21 (stereo not given) ?
Result: > 100 µM (inactive)

Q: Which GI50 is reported with M19-MEL for this entry: COc1cccc(N2C(=O)c3c(c4[nH]c5ccccc5c4c4ccc(C(C)(C)C)cc34)C2=O)c1 ?
Result: > 100 µM (inactive)

Q: Which GI50 is reported with M19-MEL for this entry: COc1ccc(O)c(C#N)c1C#N.COc1ccc(OC)c(C#N)c1C#N ?
Result: > 100 µM (inactive)

Q: Which GI50 is reported with M19-MEL for this entry: CCOC(=O)NC(=O)c1c[nH]c(=O)[nH]c1=O ?
Result: > 100 µM (inactive)

Just for reference, ChEMBL document CHEMBL1201862 is where these values come from.
